// pIC50 lookup, one value per entry
Tested on: NCI-H1876 tumor spheroid viability
METHOD DESCRIPTION: Anticancer human tumor NCI-H1876 cell line growth inhibition;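 further: spheroids exposed to compounds for seven days before the viability read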
MEASUREMENT CONTEXT: curve of first compound; second compound 0.0949 µM; spheroids with HUVEC and MSC
pIC50: −log10 of the molar value.
REPORTED ENDPOINT: pIC50

1) CC1COCCN1c1cc(-c2ccnn2C)c2ccnc(-c3ccn[nH]3)c2n1 (stereo not given) + CC[C@@]1(O)C(=O)OCc2c1cc1n(c2=O)Cc2cc3c(CN(C)C)c(O)ccc3nc2-1    > 7.50
2) CC(C)n1c(=O)n(C)c2cnc3cc(F)c(-c4ccc(OCCCN5CCCCC5)nc4)cc3c21 + CC[C@@]1(O)C(=O)OCc2c1cc1n(c2=O)Cc2cc3c(CN(C)C)c(O)ccc3nc2-1    > 7.50
3) Cc1cc(C)c(CNC(=O)c2cc(-c3ccc(CN4CCOCC4)cc3)cc3c2cnn3C2CCCC2)c(=O)[nH]1 + CC[C@@]1(O)C(=O)OCc2c1cc1n(c2=O)Cc2cc3c(CN(C)C)c(O)ccc3nc2-1    > 7.50
4) Cn1ncnc1[C@H]1c2n[nH]c(=O)c3cc(F)cc(c23)N[C@@H]1c1ccc(F)cc1 + CC[C@@]1(O)C(=O)OCc2c1cc1n(c2=O)Cc2cc3c(CN(C)C)c(O)ccc3nc2-1    > 8.02
5) COc1cc(C)[nH]c(=O)c1CN1CCc2c(Cl)cc(C(OC)C3COC3)c(Cl)c2C1=O (stereo not given) + CC[C@@]1(O)C(=O)OCc2c1cc1n(c2=O)Cc2cc3c(CN(C)C)c(O)ccc3nc2-1    > 7.50
6) COc1ccc([C@@H](O)c2cc(-c3ncnc4cc(N5CCOCC5)ccc34)c(F)cc2Cl)nn1 + CC[C@@]1(O)C(=O)OCc2c1cc1n(c2=O)Cc2cc3c(CN(C)C)c(O)ccc3nc2-1    > 7.50
7) Cc1sc2c(c1C)C(c1ccc(Cl)cc1)=NC(CC(=O)Nc1ccc(O)cc1)c1nnc(C)n1-2 (stereo not given) + CC[C@@]1(O)C(=O)OCc2c1cc1n(c2=O)Cc2cc3c(CN(C)C)c(O)ccc3nc2-1    > 8.02
8) [2H]c1nc(C)nc([2H])c1-c1cc(NC[C@@H](C)c2cccc3c(C(=O)NC)ccnc23)ncn1 + CC[C@@]1(O)C(=O)OCc2c1cc1n(c2=O)Cc2cc3c(CN(C)C)c(O)ccc3nc2-1    > 7.50
9) O=C(c1cc(Cc2n[nH]c(=O)c3ccccc23)ccc1F)N1CCN(C(=O)C2CC2)CC1 + CC[C@@]1(O)C(=O)OCc2c1cc1n(c2=O)Cc2cc3c(CN(C)C)c(O)ccc3nc2-1    > 7.02
10) CNCc1ccc(-c2cc(-c3nc(-c4ccc(S(=O)(=O)C(C)C)cc4)cnc3N)on2)cc1 + CC[C@@]1(O)C(=O)OCc2c1cc1n(c2=O)Cc2cc3c(CN(C)C)c(O)ccc3nc2-1    > 8.02
